Values from the kinase profiling compilation of Christmann-Franck et al. (2016)

- measured-target: MAPK1 (human) (UniProt P28482)
- Sequence (P28482 whole entry, looked up): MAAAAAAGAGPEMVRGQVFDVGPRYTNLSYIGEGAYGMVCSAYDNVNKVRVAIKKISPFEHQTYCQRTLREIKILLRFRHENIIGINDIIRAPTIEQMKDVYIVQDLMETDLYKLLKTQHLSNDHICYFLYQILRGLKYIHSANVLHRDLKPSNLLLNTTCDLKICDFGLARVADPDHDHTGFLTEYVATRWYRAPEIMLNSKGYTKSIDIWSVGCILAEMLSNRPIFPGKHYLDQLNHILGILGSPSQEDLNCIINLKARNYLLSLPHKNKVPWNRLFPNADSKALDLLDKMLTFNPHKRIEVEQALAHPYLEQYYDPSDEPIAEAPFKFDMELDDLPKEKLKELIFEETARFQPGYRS
- protocol-text: Caliper, Mobility shift assay off-chip
- test-context: compound 0.2 µM
property-name: inhibition

As a guide, the following entries are already answered.
IN: Return the recorded inhibition value; entry: Cc1ccc(Nc2nccc(N(C)c3ccc4c(C)n(C)nc4c3)n2)cc1S(N)(=O)=O
OUT: -6.6%

IN: Return the recorded inhibition value; entry: CCN(CC)CCNC(=O)c1c(C)[nH]c(/C=C2\C(=O)Nc3ccc(F)cc32)c1C
OUT: -7.5%

IN: Return the recorded inhibition value; entry: CNC(=O)c1cc(Oc2ccc(NC(=O)Nc3ccc(Cl)c(C(F)(F)F)c3)cc2)ccn1
OUT: -4.1%

Further cases:
IN: Return the recorded inhibition value; entry: COc1cc2c(Oc3ccc4[nH]c(C)cc4c3F)ncnc2cc1OCCCN1CCCC1
OUT: -9%
